study.system: Disks large homolog 4 (Homo sapiens)
protocol.summary: Inhibition of PSD-95 PDZ3 domain by competitive fluorescence polarization assay
test.parameters: read-out: Ki
measured.attribute: Ki

CC(C)[C@H](NC(=O)[C@H](C)NC(=O)[C@@H](NC(=O)[C@H](CCC(=O)O)NCCC1CC2CCC1C2)[C@@H](C)O)C(=O)O (stereo not given in full)    14 µM
CC(C)[C@H](NC(=S)[C@H](C)NC(=O)[C@@H](NC(=O)[C@H](CCC(=O)O)NCCC1CCCCC1)[C@@H](C)O)C(=O)O    11 µM

Attention now shifts to the item below.
Input line: Need Ki, item CC(C)[C@H](NC(=O)[C@H](CC(=O)O)NC(=O)[C@@H](NC(=O)[C@H](CCC(=O)O)NCCc1ccc(Cl)c(Cl)c1)[C@@H](C)O)C(=O)O
Output line: 130 µM

----------
study.system: Disks large homolog 4 (Homo sapiens)
protocol.summary: Inhibition of PSD-95 PDZ2 domain by competitive fluorescence polarization assay
Overview of reported pKi across a group of compounds:
Conceptually, pKi converts a concentration in mol/L into minus its log10.

Would you please look over these solved cases?
CC(C)[C@H](NC(=O)[C@H](CC(=O)O)NC(=O)[C@@H](NC(=O)[C@H](CCC(=O)O)NCCc1ccc2ccccc2c1)[C@@H](C)O)C(=O)O    5.74
CC(C)[C@H](NC(=O)[C@H](C)NC(=O)[C@@H](NC(=O)[C@H](CCC(=O)O)NCCc1ccc(F)c(F)c1F)[C@@H](C)O)C(=O)O    5.74
CC(C)[C@H](NC(=O)[C@H](C)NC(=O)[C@@H](NC(=O)[C@H](CCC(=O)O)NCCC1CCCCCC1)[C@@H](C)O)C(=O)O    5.92

Attention now shifts to the item below.
Input line: Need pKi, item CC(C)[C@H](NC(=S)[C@H](C)NC(=O)[C@@H](NC(=O)[C@H](CCC(=O)O)NCCC1CCCCC1)[C@@H](C)O)C(=O)O
Output line: 6.20

----------
Overview of reported half-life across a group of molecules:
protocol.summary: Stability in human plasma assessed as half life by ESI-LC/MS
Assay type: ADME, cell-free

Would you please look over these solved cases?
CN[C@@H](CCC(=O)O)C(=O)N[C@H](C(=O)N[C@@H](C)C(=S)N[C@H](C(=O)O)C(C)C)[C@@H](C)O    > 91.7 h
CC(C)[C@H](NC(=S)[C@H](C)NC(=O)[C@@H](NC(=O)[C@H](CCC(=O)O)NCCC1CCCCC1)[C@@H](C)O)C(=O)O    > 117 h
CC(C)[C@H](NC(=S)[C@H](C)NC(=O)[C@@H](NC(=O)[C@H](CCC(=O)O)NCCc1ccc2ccccc2c1)[C@@H](C)O)C(=O)O    > 117 h

Input line: Need half-life, item CC(C)[C@H](NC(=S)[C@H](C)NC(=O)[C@@H](NC(=O)[C@H](CCC(=O)O)NCCc1ccc(Cl)c(Cl)c1)[C@@H](C)O)C(=O)O
Output line: > 117 h

Input line: Cool, now CN[C@@H](CCC(=O)O)C(=S)N[C@H](C(=O)N[C@@H](C)C(=O)N[C@H](C(=O)O)C(C)C)[C@@H](C)O
Output line: > 91.7 h

----------
study.system: Disks large homolog 4 (Homo sapiens)
protocol.summary: Inhibition of PSD-95 PDZ3 domain by competitive fluorescence polarization assay
test.parameters: read-out: Ki
measured.attribute: Ki

Input line: Need Ki, item CC(C)[C@H](NC(=O)[C@H](C)NC(=O)[C@@H](NC(=O)[C@H](CCC(=O)O)NCC1CC2CCC1C2)[C@@H](C)O)C(=O)O (some centres not stated)
Output line: 20 µM

Input line: Cool, now CC(C)[C@H](NC(=O)[C@H](C)NC(=O)[C@@H](NC(=O)[C@H](CCC(=O)O)NCCCc1ccc2ccccc2c1)[C@@H](C)O)C(=O)O
Output line: 53 µM

Input line: Cool, now CC(C)[C@H](NC(=O)[C@H](C)NC(=O)[C@@H](NC(=O)[C@H](CCC(=O)O)NCC12CC3CC(CC(C3)C1)C2)[C@@H](C)O)C(=O)O
Output line: 6.7 µM

Input line: Cool, now CC(C)[C@H](NC(=O)[C@H](C)NC(=O)[C@@H](NC(=O)[C@H](C)NCCc1ccc2ccccc2c1)[C@@H](C)O)C(=O)O
Output line: 280 µM

Input line: Cool, now CC(C)[C@H](NC(=O)[C@H](C)NC(=O)[C@@H](NC(=O)[C@H](CCC(=O)O)NCCCc1c2ccccc2cc2ccccc12)[C@@H](C)O)C(=O)O
Output line: 95 µM

Input line: Cool, now CC(C)[C@H](NC(=O)[C@H](C)NC(=O)[C@@H](NC(=O)[C@H](CCC(=O)O)NCCc1ccc(F)c(F)c1F)[C@@H](C)O)C(=O)O
Output line: 8.8 µM

Input line: Cool, now CC(C)[C@H](NC(=O)[C@H](C)NC(=O)[C@@H](NC(=O)[C@H](CCC(=O)O)NCCCCc1ccc2ccc3cccc4ccc1c2c34)[C@@H](C)O)C(=O)O
Output line: 76 µM

----------
Overview of reported pKi across a group of molecules:
study.system: Disks large homolog 4 (Homo sapiens, UniProt P78352)
Sequence (P78352 whole entry, the tested form may be a part): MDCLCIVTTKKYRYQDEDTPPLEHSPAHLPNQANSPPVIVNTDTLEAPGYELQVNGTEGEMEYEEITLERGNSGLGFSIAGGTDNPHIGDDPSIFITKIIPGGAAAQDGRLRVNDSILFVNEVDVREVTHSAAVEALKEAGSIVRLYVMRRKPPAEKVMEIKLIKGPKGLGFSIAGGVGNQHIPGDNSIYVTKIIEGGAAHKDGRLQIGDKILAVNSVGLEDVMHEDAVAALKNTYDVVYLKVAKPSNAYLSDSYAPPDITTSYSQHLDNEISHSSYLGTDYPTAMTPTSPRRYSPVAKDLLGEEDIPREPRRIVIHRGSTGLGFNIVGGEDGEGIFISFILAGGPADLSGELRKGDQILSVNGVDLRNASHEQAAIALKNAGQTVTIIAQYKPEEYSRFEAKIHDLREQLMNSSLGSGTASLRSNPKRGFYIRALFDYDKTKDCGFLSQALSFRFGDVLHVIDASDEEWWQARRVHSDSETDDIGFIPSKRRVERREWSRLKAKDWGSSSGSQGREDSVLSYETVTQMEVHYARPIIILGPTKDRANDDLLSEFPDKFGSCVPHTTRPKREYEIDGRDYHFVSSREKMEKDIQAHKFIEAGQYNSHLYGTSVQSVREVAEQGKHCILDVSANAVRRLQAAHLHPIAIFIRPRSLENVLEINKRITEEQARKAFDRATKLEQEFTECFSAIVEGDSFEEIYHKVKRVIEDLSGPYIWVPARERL
protocol.summary: Inhibition of PSD-95 PDZ3 domain by competitive fluorescence polarization assay
test.parameters: read-out: Ki
Conceptually, pKi converts a concentration in mol/L into minus its log10.

Would you please look over these solved cases?
CC(C)[C@H](NC(=O)[C@H](C)NC(=O)[C@@H](NC(=O)[C@H](CCC(=O)O)NCC1CCCCCC1)[C@@H](C)O)C(=O)O    4.80
CC(C)[C@H](NC(=O)[C@H](C)NC(=O)[C@@H](NC(=O)[C@H](CCC(=O)O)NCCc1ccc2ccc3cccc4ccc1c2c34)[C@@H](C)O)C(=O)O    4.29

Input line: Need pKi, item CC(C)[C@H](NC(=S)[C@H](C)NC(=O)[C@@H](NC(=O)[C@H](CCC(=O)O)NCCc1ccc2ccccc2c1)[C@@H](C)O)C(=O)O
Output line: 4.96

Origin of the recorded values: ChEMBL document CHEMBL1687918
